Molecular target: T1, human CD200R1 expressed on cells (Jurkat-CD200R1, U937-CD200R1, HH cells) (human, UniProt Q8TD46 25-348)
T1 construct: whole, on cells; also called HH (CRL-2105); cell surface-expressed CD200R1
T1 sequence (looked up): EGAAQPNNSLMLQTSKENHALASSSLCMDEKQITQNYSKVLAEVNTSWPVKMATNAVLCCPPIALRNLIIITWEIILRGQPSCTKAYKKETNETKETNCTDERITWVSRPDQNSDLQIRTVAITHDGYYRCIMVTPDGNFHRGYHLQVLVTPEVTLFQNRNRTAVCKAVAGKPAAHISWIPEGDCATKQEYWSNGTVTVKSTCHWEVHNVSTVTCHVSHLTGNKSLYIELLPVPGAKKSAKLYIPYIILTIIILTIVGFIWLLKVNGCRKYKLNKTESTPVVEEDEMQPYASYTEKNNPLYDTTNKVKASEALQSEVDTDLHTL
Test: flow cytometry, HH cells; drawn table
Classification field: enter YES for Geo mean (%) at 12.5 nM values not below 70%, NO for values below it.

Please review the following examples before continuing.
# binder, class
measured = [
    ("P001018 scFv mutant L3-L94H (scFv) scFv: QVQLVQSGAEVKKPGASVKVSCKASGYTFTSYVMHWVRQAPGQGLEWMGYINPYNDDTNYNEKFKGRVTMTRDTSTSTVYMELSSLRSEDTAVYYCAREDYYGSRWGYWGQGTLVTVSSGGGGSGGGGSGGGGSDIVLTQSPASLAVSPGQRATITCRASKSVSTSGYSYMHWYQQKPGQPPKLLIYLASNLESGVPARFSGSGSGTDFTLTINPVEANDTANYYCQHSREHLTFGQGTKVEIK", "NO"),
    ("P001018 scFv mutant H3-Y102K (scFv) scFv: QVQLVQSGAEVKKPGASVKVSCKASGYTFTSYVMHWVRQAPGQGLEWMGYINPYNDDTNYNEKFKGRVTMTRDTSTSTVYMELSSLRSEDTAVYYCAREDYYGSRWGKWGQGTLVTVSSGGGGSGGGGSGGGGSDIVLTQSPASLAVSPGQRATITCRASKSVSTSGYSYMHWYQQKPGQPPKLLIYLASNLESGVPARFSGSGSGTDFTLTINPVEANDTANYYCQHSRELLTFGQGTKVEIK", "NO"),
    ("P001018 (huOX108.1) (antibody, V domains shown, also called humanized antibody P001018) VH: QVQLVQSGAEVKKPGASVKVSCKASGYTFTSYVMHWVRQAPGQGLEWMGYINPYNDDTNYNEKFKGRVTMTRDTSTSTVYMELSSLRSEDTAVYYCAREDYYGSRWGYWGQGTLVTVSS VL: DIVLTQSPASLAVSPGQRATITCRASKSVSTSGYSYMHWYQQKPGQPPKLLIYLASNLESGVPARFSGSGSGTDFTLTINPVEANDTANYYCQHSRELLTFGQGTKVEIK", "NO"),
    ("P001018 scFv mutant L3-T96R (scFv) scFv: QVQLVQSGAEVKKPGASVKVSCKASGYTFTSYVMHWVRQAPGQGLEWMGYINPYNDDTNYNEKFKGRVTMTRDTSTSTVYMELSSLRSEDTAVYYCAREDYYGSRWGYWGQGTLVTVSSGGGGSGGGGSGGGGSDIVLTQSPASLAVSPGQRATITCRASKSVSTSGYSYMHWYQQKPGQPPKLLIYLASNLESGVPARFSGSGSGTDFTLTINPVEANDTANYYCQHSRELLRFGQGTKVEIK", "YES"),
]

Query: Does the reported Geo mean (%) at 12.5 nM for P001018 scFv mutant L3-L95D (scFv) scFv: QVQLVQSGAEVKKPGASVKVSCKASGYTFTSYVMHWVRQAPGQGLEWMGYINPYNDDTNYNEKFKGRVTMTRDTSTSTVYMELSSLRSEDTAVYYCAREDYYGSRWGYWGQGTLVTVSSGGGGSGGGGSGGGGSDIVLTQSPASLAVSPGQRATITCRASKSVSTSGYSYMHWYQQKPGQPPKLLIYLASNLESGVPARFSGSGSGTDFTLTINPVEANDTANYYCQHSRELDTFGQGTKVEIK fall at or above the 70% mark?
Result: YES

Query: Does the reported Geo mean (%) at 12.5 nM for P001018 scFv mutant L3-R92H (scFv) scFv: QVQLVQSGAEVKKPGASVKVSCKASGYTFTSYVMHWVRQAPGQGLEWMGYINPYNDDTNYNEKFKGRVTMTRDTSTSTVYMELSSLRSEDTAVYYCAREDYYGSRWGYWGQGTLVTVSSGGGGSGGGGSGGGGSDIVLTQSPASLAVSPGQRATITCRASKSVSTSGYSYMHWYQQKPGQPPKLLIYLASNLESGVPARFSGSGSGTDFTLTINPVEANDTANYYCQHSHELLTFGQGTKVEIK fall at or above the 70% mark?
Result: YES

Data provenance is patent US20260263521A1.
